Record form. Attribute: PBM binding z-score. Fill in for each entry.
# Tested on: RARg:RXRa (NR concentration 270 nM, RXRa partner concentration 90 nM)
# test-details: PBM binding z-score (relative to random genomic background probes); higher = stronger binding; sequences stand for … in GC…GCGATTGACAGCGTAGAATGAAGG
One number for each entry.

Take a look at these entries with their results.
ATCTCTAGGTAAAGATTGTTCAGTGAATGCAAAT | -0.0248
CAAACTAGGTCAAAGGTCACAGTCGAGCCAACCA | 8.75
CGAACTAGGTCATTGACCGGACAGTGAATAGTAA | 4.42
TCTAGTTGGTCAAAGATCACACACTCGAAATGCG | 1.57

Hey, quick one: what's PBM binding z-score for each of these?
1. GCTTGTAGTTCAAGGTTAAGAAAGACTAAGCTAA
2. CCTGCTAGGTCAATGGTCAGTTAAAGCAGCTCGC
3. GCGACTGGGGCAAAGCGGGTTACCATAAGGTTGG

1. 2.24
2. 3.72
3. 0.446
